# Tested on: MT-2 cells
property: CC50 (µM)
Hi! Could you send only the number? It should be in µM, unit omitted.

// worked examples, CC50 included
{"columns": ["molecule", "testedTarget", "unitOfMeasurement", "numericResult"],
 "data": [
  ["COCCN1C(=O)/C(=C/c2ccc(-c3ccc(Cl)c(C(=O)O)c3)o2)SC1=S [NB201]", "MT-2 cells", "µM", 118],
  ["Cc1cccc(NC(=O)CN2C(=O)S/C(=C\\c3ccc(-c4cccc(C(=O)O)c4C)o3)C2=O)c1 [NB209]", "MT-2 cells", "µM", 113],
  ["COc1ccc(CN2C(=O)/C(=C/c3ccc(-c4ccc(Cl)c(C(=O)O)c4)o3)SC2=S)cc1 [NB211]", "MT-2 cells", "µM", 93.2]
]}

Now take the following molecule into account.
Recorded CC50 for CCN1C(=O)S/C(=C\c2ccc(-c3cc(C(=O)O)ccc3Cl)o2)C1=O [NB236] , please? 113
